# Measurement Target: human NCX1 (Homo sapiens, UniProt P32418)
# Construct: expressed in transfected cells
# Experimental Details: Inhibition of Ca2+ influx into cells (NCX1 reverse mode), FLIPR Fluo-4 assay
# Format: cell-based
# Experimental Setup: inhibition of NCX1 in reverse mode (Ca2+ influx into cells); read-out: NCX1rv IC50
Let's look at some compounds and their measured log10(IC50).
In plain terms, each number is the log10 of measured IC50 in µM.

Please review the entries below; each comes with its answer.
INSERT INTO assay_data (compound, value_kind, reported_result) VALUES
  ('Cc1ccccc1C1CCc2cc(OC3CCC(NCCN4CCOCC4)CC3)ccc2O1 (centres unmarked)', 'log10(IC50)', 0.28),
  ('COc1cccc(C2CCc3cc(OC4CCC(C(=O)NCCO)CC4)ccc3O2)c1F (centres unmarked)', 'log10(IC50)', 0.11),
  ('CCCNC1CCC(Oc2ccc3c(c2)CCC(c2ccccc2F)O3)CC1 (centres unmarked)', 'log10(IC50)', 0.15),
  ('c1ccc(C2CCc3cc(O[C@H]4CC[C@H](N(Cc5ccsc5)Cc5ccsc5)CC4)ccc3O2)cc1 (some centres unmarked)', 'log10(IC50)', 1.04),
  ('CCn1nccc1CNC(=O)C1CCC(Oc2ccc3c(c2)CCC(c2cccc(OC)c2F)O3)CC1 (centres unmarked)', 'log10(IC50)', -0.05);

Given the entry CCC(C)CN[C@H]1CC[C@H](Oc2ccc3c(c2)CCC(c2ccccc2)O3)CC1 (some centres unmarked) , report its measured log10(IC50).
-0.30

What measured log10(IC50) goes with CCC(C)CN(CCO)C1CCC(Oc2ccc3c(c2)CCC(c2ccccc2)O3)CC1 (centres unmarked) ?
0.15

Suppose we examine the compound O=C(NCc1ccno1)C1CCC(Oc2ccc3c(c2)CCC(c2ccccc2F)O3)CC1 (centres unmarked) ; what log10(IC50) value has been reported?
-0.22

----------
# IC50 values compiled below
# Measurement Target: human NCX1 (Homo sapiens, UniProt P32418)
# Construct: expressed in transfected cells
# Experimental Details: Inhibition of Ca2+ influx into cells (NCX1 reverse mode), FLIPR Fluo-4 assay
# Format: cell-based
# Experimental Setup: inhibition of NCX1 in reverse mode (Ca2+ influx into cells); read-out: NCX1rv IC50
Quick note: give the figure in µM, leave out the unit.

INSERT INTO results (compound, reported_result) VALUES
  ('Cc1cccc(C)c1C1CCc2cc(O[C@H]3CC[C@H](NCC4CCOC4)CC3)ccc2O1 (relative stereo)', 8.3),
  ('CC(C)(C)CNC1CCC(Oc2ccc3c(c2)CCC(c2ccccc2)O3)CC1 (stereo not shown) [compound 162]', 2.3),
  ('CC(C)OCCCNC1CCC(Oc2ccc3c(c2)CCC(c2ccccc2)O3)CC1 (stereo not shown)', 1.1);

Field: next compound
Entry under review: Cc1cc(CC(=O)N[C@H]2CC[C@H](Oc3ccc4c(c3)CCC(c3ccccc3)O4)CC2)on1 (relative stereo) . Reported IC50?
0.2

----------
# Test system: Sprague-Dawley rats
# Experimental Details: In vivo method for determining the effect on heart contractility (left ventricular dp/dtmax)
# Design: species or system rat
# Experimental Setup: anesthetized male Sprague-Dawley rats, intravenous, 0.1 mg/kg, vs solvent control
// values below are reported Contractility increase (left ventricular contractility)
Answer in %, number only, no unit symbol.

Please review the following examples before continuing.
INSERT INTO results (compound, reported_result) VALUES
  ('Cc1ccccc1C1CCc2cc(O[C@H]3CC[C@H](N)CC3)ccc2O1.Cl (stereo partly shown) [Example 156]', 44),
  ('Cc1ccccc1C1CCc2cc(OC3CCC(C(=O)NCc4ccno4)CC3)ccc2O1 (stereo not shown) [Example 158]', 106),
  ('Cc1ccccc1[C@@H]1CCc2cc(O[C@H]3CC[C@H](C(=O)NCCO)CC3)ccc2O1 [Example 268]', 108);

Look up Contractility increase (left ventricular contractility) for this compound: NCC(=O)N[C@H]1CC[C@H](Oc2ccc3c(c2)CC[C@@H](c2ccccc2)O3)CC1 [Example 159]
46

----------
In this section, each of the molecules is paired with its reported pIC50.
# Measurement Target: human NCX1 (Homo sapiens, UniProt P32418)
# Construct: expressed in transfected cells
# Experimental Details: Inhibition of Ca2+ influx into cells (NCX1 reverse mode), FLIPR Fluo-4 assay
# Type: cell-based
# Experimental Setup: inhibition of NCX1 in reverse mode (Ca2+ influx into cells); read-out: NCX1rv IC50
# Method: The sodium/calcium exchanger NCX1 can transport calcium ions and sodium ions through the cell membrane. The transport is an exchange of Ca^2+ and Na^+ in two directions depending on membrane potential and ion gradients. […] The effect of the compounds of the invention on NCX1 was determined in CHO cells stably expressing human NCX1 (gene symbol SLC8A1; cf. WO 2009/115238). […]
# pIC50: negative log10 of molar concentration; output just the value

Known pIC50 results, listed for orientation:
INSERT INTO assay_data (molecule, reported_result) VALUES
  ('COCCCNC1CCC(Oc2ccc3c(c2)CCC(c2ccccc2F)O3)CC1 (centres unmarked) [compound 215]', 5.55),
  ('Cc1ccccc1C1CCc2cc(O[C@H]3CC[C@H](C(=O)Nc4ccccn4)CC3)ccc2O1 (relative stereo) [compound 266]', 6.52),
  ('Cc1c(F)cccc1C1CCc2cc(OC3CCC(C(=O)NCC(C)O)CC3)ccc2O1 (centres unmarked) [compound 276]', 6.22),
  ('CSCCNC1CCC(Oc2ccc3c(c2)CCC(c2ccccc2)O3)CC1 (centres unmarked) [compound 111]', 6.22);

Which pIC50 is reported for this molecule? CCn1nccc1CNC(=O)C1CCC(Oc2ccc3c(c2)CCC(c2cccc(F)c2C)O3)CC1 (centres unmarked) [compound 283]
6.22

So what does the record say about pIC50 for Fc1ccccc1C1CCc2cc(OC3CCC(NCCN4CCOCC4)CC3)ccc2O1 (centres unmarked) [compound 224] ?
5.46

Using the record for CC(=O)N[C@H]1CC[C@@H](Oc2ccc3c(c2)CCC(c2ccccc2)O3)CC1 (relative stereo) [compound 6] , report its pIC50.
6.30

Quick check: pIC50 of Cc1n[nH]c(C)c1CCC(=O)N[C@H]1CC[C@H](Oc2ccc3c(c2)CCC(c2ccccc2F)O3)CC1 (relative stereo) [compound 234] ?
7.00

----------
# Measurement Target: human NCX1 (Homo sapiens)
# Construct: expressed in transfected cells
# Experimental Details: Inhibition of Ca2+ influx into cells (NCX1 reverse mode), FLIPR Fluo-4 assay
# Assay type: cell-based
# Experimental Setup: inhibition of NCX1 in reverse mode (Ca2+ influx into cells); read-out: NCX1rv IC50
# Description: The sodium/calcium exchanger NCX1 can transport calcium ions and sodium ions through the cell membrane. The transport is an exchange of Ca^2+ and Na^+ in two directions depending on membrane potential and ion gradients. […] The effect of the compounds of the invention on NCX1 was determined in CHO cells stably expressing human NCX1 (gene symbol SLC8A1; cf. WO 2009/115238). […]
Value Kind: log10 of IC50 (log10 of the value in nM)
The common logarithm of IC50 in nM is what is listed.

Below, 2 compounds whose answers are already recorded.
INSERT INTO results (compound, measurement_target, reported_result) VALUES
  ('O=C(N[C@H]1CC[C@H](Oc2ccc3c(c2)CCC(c2ccccc2F)O3)CC1)C1CC1 (relative stereo)', 'human NCX1 (Homo sapiens)', 2.00),
  ('c1ccc(C2CCc3cc(OC4CCC(NC5CCCCC5)CC4)ccc3O2)cc1 (stereo not shown)', 'human NCX1 (Homo sapiens)', 3.04);

Item O=C(N[C@H]1CC[C@H](Oc2ccc3c(c2)CCC(c2ccccc2)O3)CC1)[C@@H]1CCCN1 (stereo partly shown) has what recorded log10 of IC50?
2.90

Look at this compound and give its reported log10 of IC50. Cc1nn(C)c(C)c1CCC(=O)N[C@H]1CC[C@H](Oc2ccc3c(c2)CCC(c2ccccc2)O3)CC1 (relative stereo)
2.48

Look up log10 of IC50 for this compound: NC1(Cc2ccccc2)CCC(Oc2ccc3c(c2)CCC(c2ccccc2)O3)CC1 (single isomer, unassigned) [compound 45]
4.34

Returns the measured log10 of IC50 for the input compound. Input: O=C(Cn1cccn1)N[C@H]1CC[C@H](Oc2ccc3c(c2)CCC(c2ccccc2F)O3)CC1 (relative stereo)
2.00

For c1ccc(C2CCc3cc(O[C@H]4CC[C@H](NCC5CCCCC5)CC4)ccc3O2)cc1 (stereo partly shown) , what is its reported log10 of IC50?
2.78

----------
# System: Sprague-Dawley rats
# Experimental Details: In vivo method for determining the effect on heart contractility (left ventricular dp/dtmax)
# Design: species or system rat
# Experimental Setup: anesthetized male Sprague-Dawley rats, intravenous, 0.3 mg/kg, vs solvent control
Value Kind: Contractility increase (left ventricular contractility) (%)
Report the value in % with no unit label.

Sample answers from the record:
INSERT INTO measurements (compound, reported_result) VALUES
  ('Cc1ccccc1[C@@H]1CCc2cc(O[C@H]3CC[C@H](C(=O)NCCOP(=O)([O-])[O-])CC3)ccc2O1.[Na+].[Na+] [Example 303]', 114),
  ('NCC(=O)N[C@H]1CC[C@H](Oc2ccc3c(c2)CC[C@@H](c2ccccc2)O3)CC1 [Example 159]', 104),
  ('Cc1ccccc1C1CCc2cc(OC3CCC(NCc4c(C)nn(C)c4C)CC3)ccc2O1 (stereo not shown) [Example 177]', 81);

Any idea what Contractility increase (left ventricular contractility) came out for Cc1ccccc1[C@@H]1CCc2cc(O[C@H]3CC[C@H](C(=O)NCCO)CC3)ccc2O1 [Example 268] on Sprague-Dawley rats?
154

For Sprague-Dawley rats, provide Contractility increase (left ventricular contractility) of Cc1ccccc1C1CCc2cc(O[C@H]3CC[C@H](N)CC3)ccc2O1.Cl (stereo partly shown) [Example 156] please.
110

What measured Contractility increase (left ventricular contractility) is associated with O=C(N[C@H]1CC[C@H](Oc2ccc3c(c2)CCC(c2ccccc2)O3)CC1)[C@@H]1CCCN1 (stereo partly shown) [Example 180] on Sprague-Dawley rats?
66

Enter reported Contractility increase (left ventricular contractility) observed with Sprague-Dawley rats for Cc1ccccc1C1CCc2cc(OC3CCC(C(=O)NCc4ccno4)CC3)ccc2O1 (stereo not shown) [Example 158]
139

The measured values listed here are drawn from patent US9440941B2.
